System: MS2 coat protein
Assay: apparent KD of MS2 coat protein; designed switch direction (-1 OFF switch, 1 ON switch): -1; higher = weaker reporter binding
Conditions: Eterna round: R95; input ligand: microRNA oligo, concentration not stated
Reported apparent KD of MS2 coat protein values for a set of sequences

sequence_chain	target	apparent KD of MS2 coat protein / nM
GUGAGAUAGUUAGUGGACGACAUGAGGAUCACCCAUGUGAGGGAAAUGUUAAGGAGAAAGCUUUUUGCUCGUCUUUA [JR_SV3TOV1_Sub035] (puzzle: Sensor v3, turn-off variant 1)	MS2 coat protein	70.4
CCUUUGUCAGGAUAUCAGAAAACGCUCGUAGGGAGCGCAAAUGAGAAGGGACAUGAGGAUCACCCAUGUAAAGA [Edmareen] (puzzle: Exclusion 4)	MS2 coat protein	45.1
UUUUAACAUGAGGAUCACCCAUGUGAGGAUAUCGAAAUUUAUAUUAAUAUUUAUUAAACGAGAAGGCACAUUUU [JMF 59] (puzzle: Exclusion 1)	MS2 coat protein	82
CUUAGACAUGAGGAUCACCCAUGUGAGGAUAUGAAAUUAAUUAAUUAUGAAGUAUGAAUCAGAAGGCACAUAUG [Mat - Mod of Hyphema D35] (puzzle: Exclusion 1)	MS2 coat protein	78.6
CUUAGACAUGAGGAUCACCCAUGUGAGGAUAUGAUGCGAAUAAAGAAAGAAGAAAGCAUCAGAAGGCACAUAUG [Fiskers Ex 1 - 1] (puzzle: Exclusion 1)	MS2 coat protein	121
UUUUAACAUGAGGAUCACCCAUGUGAGGAUAUCGAAAUUUAUAUUAAUAUUUUUAAAACGAGAAGGCACAUUUU [JMF 67] (puzzle: Exclusion 1)	MS2 coat protein	53.5
UGGUGGAAGCAGGAUAUGCUAGAAGUGUAGAAUGCAGAAGGGCUAACAUGAGGAUCACCCAUGUAAGAGGUGUU [JR_E6_Sub052] (puzzle: Exclusion 6)	MS2 coat protein	296
GAAGAGACAGGAUAUACAUGAGGAUCACCCAUGUGAGUAUGUUGGAGGCGGAGGAGGUGUAGAAGGGUCAAAGA [JR_Exclu3_Sub019] (puzzle: Exclusion 3)	MS2 coat protein	20.2
CAUGGAACGUAGGAUAUCUCGCAGCCCGACUGCAGAGAAGGACGUACAUGAGGAUCACCCAUGUAUGAUCCAAA [Vexeoren] (puzzle: Exclusion 6)	MS2 coat protein	18.1
CCGGAAAUAGAGGAUAUAGGACUGGAUACAGUCCUAGAAGGCUAUACAUGAGGAUCACCCAUGUGUCCUACCGG [Fiskers Ex 6 - 63] (puzzle: Exclusion 6)	MS2 coat protein	14.1
UUAUACGUUGAGGAUAUGCGACUUUGUAUAGUUGUAGAAGGCGAUACAUGAGGAUCACCCAUGUUUAUGGGCAU [LRO-Ex6-10] (puzzle: Exclusion 6)	MS2 coat protein	186
GAGGUACAUGAGGAUCACCCAUGUGAGGAUAUAGUGGAAGAUUGAGAGAGGUGGAGGACUAGAAGGCACAGUGG [JR_Exclu1_Sub039] (puzzle: Exclusion 1)	MS2 coat protein	48.1
GACCGGACGUGGUCUGGUAACAUGAGGAUCACCCAUGUUGGUCUAAGAACAUGCCUUUUGCACGCUCGUCUUAUAUU [JR_SV3TOV1_Sub062] (puzzle: Sensor v3, turn-off variant 1)	MS2 coat protein	29.6
AAUAGCUGAGGAUAUACAUGAGGAUCACCCAUGUAUUAGUAGGCUGGGAAUAAAUCGUGUAGAAGGCAGGAUGA [Ceerge] (puzzle: Exclusion 3)	MS2 coat protein	16.7
CCGCAAAUGCAGGAUAUCGUAUCGGAUACGAUACGAGAAGGGCGUACAUGAGGAUCACCCAUGUGUCCUAGCGG [Fiskers Ex 6 - 42] (puzzle: Exclusion 6)	MS2 coat protein	16.6
UUGACCCACGUCAGGAUAUCAAGAAAAGAGGCUCUUGAGAAGGGACAUGAGGAUCACCCAUGUAAGAAAUAAAU [Qumabibe] (puzzle: Brourd's mod of Exclusion 4)	MS2 coat protein	28.4
GAUGGAGAGCAGGAUAUCUUGGGUAAGCAUCAUAGAGAAGGGCUCACAUGAGGAUCACCCAUGUGGUCCUAGAA [Ateedza] (puzzle: Exclusion 6)	MS2 coat protein	16.2
CGUAUCUUUCACGUGAGUAGUGGGUGCAACAGGUGGGUCACAUGAGGAUCACCCAUGUACUCACUUGCUCGUCUUAU [Grok-var2-07] (puzzle: Sensor v3, turn-off variant 2)	MS2 coat protein	14
CAUGGAUGUGAGCCGCAUUACAUGAGGAUCACCCAUGUCAACAAGCUUUUUGCUUAUCUUACGCGGCGGCAUCAAAA [Enisusti] (puzzle: Sensor v3, turn-off variant 1)	MS2 coat protein	11.8
AAAACUGCCCAUGACCGCAAGCUUUUUGCUUGUCUUACCACAUGAGGAUCACCCAUGUGUCAUGGGCUCCUUAUAAA [Tisoanor] (puzzle: Sensor v3, turn-off variant 2)	MS2 coat protein	10.8
AGGAAUGAAGGAUAUACAUGAGGAUCACCCAUGUAAAAAAAGUCGUUUAUUGUGUCAUGUAGAAGGUCAAGAAG [JR_Exclusion3_Sub002] (puzzle: Exclusion 3)	MS2 coat protein	29.6

###

Tested on: K4 kissing-loop RNA reporter;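 note: bound reporter read as fluorescence of individual clusters on recovered sequencing chips by microscopy, with normalized cluster intensities fitted with a binding model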
Test: apparent KD of K4 kissing-loop reporter; higher = weaker reporter binding
Details: Eterna round: R107; input ligand: none
Each record gets a class by apparent KD of K4 kissing-loop reporter: low class: < 100 nM; middle class: ≥ 100 nM and < 300 nM; high class: ≥ 300 nM

sequence_chain	group_label
UAUAGCGUCAGAAGGAGCGUGAGUAUAACAUGGCUGGAGUGAUGUUCCAGGAGUUAAUACUCACAGGUAGGUCGCUGACUCCUGG [Arg B SS t2]	low class
CCUAUCUCUUACGAUACCAGUCAAUGAUAUUUUAUCAAUGCCCUCACCGAGUGAUGUUCGGACCCUUGGCAGCGUCUGGGAUAGG [pvppimullin]	middle class
GGUGCCGGGCAAGGAUAUUAGUCGAGUGAUGUUCGGCGGUCCAAGUCGUUGCGGCGUUAAACCCUUUGAGAAGGUGCCCGGUGCC [#2 Exclusion - FMN B Attempt #1 (HarryS)]	middle class
UAUACUAGACAAGAGAGAAUUCUCUCAAGAGAGGAUAUCCGAAUUCGGAGAAGGCUCGCUAAGUGAUGUUUGGAAUAGUCUAGAA [AK4 SS FMN A]	high class
GAUUCAGUGAUGUUGGAAGGCGAGCGGGAUACCAGCCAAGACUCAGGCCCUUGGCAGCCCACAUAUCCCACGUAGAUAGUAGCUC [Same State - Theophylline A (Freestyle 13)]	middle class
AAAAUAGAUCAGUGAUGUUGGUGUCUGGAUACCAGCGAUAAUAGUCGCCCUUGGCAGCCAUGGACGUACAAAAUAAGUACGUCCU [MatMod 20 - Jieux - Same State - Theophylline A]	high class
AAGUGUUCUAGUGAUACCAGACAUUUCUAUUUUAUCUUUAUAGCUAAGUGAUGUUUAGCAGUCCCUUGGCAGCACUAUUUCACUA [JR_SSTheophyB_Sub017]	middle class
UUCAUCGUGGUUCACGGGUGGUAUGAAACGCGAGGACCGGUACGGCCGCCACUCGGUUCCGCUUGUUGAGUGAUGUUCAAUAUUU	middle class
UAUACUAGACAAGAGAGAAUUCUCUCAAGAGAGGAUAUCCGAAUUCGGAGAAGGCUCUCUAAGUGAUGUUUGGAAUAGUCUAGAA [AK5 SS FMN A]	high class
UGUAAGCGCGUAGAUACCAGCAGACGAGUGAUGUUCAAAAGAUUAAGGAAAAGAAAGUAAUGCCCUUGGCAGCUAAUCAUAAGCG [whbob_Ex_Theo_B_sa92]	high class
GGCACGGGCUCGGCCGCCACUCCCGCGGGUCGAAAGGUCCGCUACUGAGUGAUGUUCGGUUGGAGGAGGACCGGGAGCCCGUGCC [#2 Exclusion - Tryptophan B Attempt #23 (HarryS)]	middle class
CUAUAUAGUGAUGUUAUAUAGAUAACAGAUACCAGCUAGAAAACUAGCCCUUGGCAGCUGAUAAGGGAAAGUAUAAUUGUGUAAA [AstroSTH-A#DifdesignED20.18]	low class
AAGCGUAAAAUGGCGGACAUACUGCUCCCACGAGGACCGGUACGGCCGCCACUCGAAUGCGGCAGUGAUGUUGCCGCCUUCGCGU [Zauslereed]	low class
AAGUGAUGUUGUAGUGAUGUUGUGAUGUUGCAGGAUAUAUAGUGAUGUAGAAGGGUAUGUGCAGUUUUCUUAUUUGAGUGUUGAU [zwzamullin]	low class

###

System: MS2 coat protein
Test: apparent KD of MS2 coat protein; designed switch direction (-1 OFF switch, 1 ON switch): 1; higher = weaker reporter binding
Details: input ligand: FMN 200 uM
Use 80 nM as the dividing line for apparent KD of MS2 coat protein, with the line itself on the rule met side and lower values as rule not met.

sequence_chain	group_label
AAUUAAGAUCGAGGAUAUCACGUCGAUUAGACGUGAGAAGGCGAUCAUAACAUGAGGAUCACCCAUGUAUUACAUGAAUUAAUU [SSNG1/4-B2] (Eterna round: R96, puzzle: Same State NG 1)	rule not met
GAGGGACAGACCAACAUGAGGAUCACCCAUGUCCUCGCUGGUCAGGAUAUCCCGCCAACAGGCGAGGAGAAGGGACGGUGAACC (Eterna round: R96, puzzle: Same State NG 3)	rule met
ACAUGAGGAUCACCCAUGUAACACCUGAAAAUAAAACGAACACAGGAUAUCCCGACAUGACGUUGGGAGAAGGGUGAUCGAAGA [Leenrien] (Eterna round: R96, puzzle: Same State NG 3)	rule met
AGCUAUUACGAAGGAUAUAGUGACAUGAGGAUCACCCAUGUGUACAUGAGUAAUUGUGAUCACGUCUAGAAGGUUGUACUAACA [SameState NG2 #35] (Eterna round: R96, puzzle: Same State NG 2)	rule met
AUCAAAGCGUGAGGAUAUAUGGGAACACGAGUCGUAGAAGGUACGUCAAUACAUGAGGAUCACCCAUGUAAAGAGGAGAACCUC [Eternabot solution 33] (Eterna round: R96, puzzle: Same State NG 1)	rule not met
UAGUGCGUUAGAGGAUAUUCUAAAAAAAAAAAAAAGACAUGAGGAUCACCCAUGUAUGUACAUGGGAAGAAGGCUGAUGUGCUA [Omei SS(NG)2 B] (Eterna round: R96, puzzle: Same State NG 2)	rule not met
CACGCCUCGGUAGGAUAUGAGGUGCCAUAGGCAACAGCCUAUGGACAUGAGGAUCACCCAUGUCCUCAGAAGGGCCAGGCGUGA [Rexeorar] (Eterna round: R96, puzzle: Same State NG 2)	rule not met
UUGAAGAAUUAAGGAUAUUGAGUACAUAUGUUAAACAUGAGGAUCACCCAUGUGGGUUGCGGUAUCGAGAAGGUAAAUUACUAG [Mat - same State NG 2 - JL mod - D68] (Eterna round: R96, puzzle: Same State NG 2)	rule met
GGUAUCAGCACAGGAUAUGCUAUCCUUUGGGUAGCAGAAGGGUGGACAUGAGGAUCACCCAUGUGGGUGCCAGGGCGUGAGCCC [JL SSNG1 1.86] (Eterna round: R96, puzzle: Same State NG 1)	rule met
AACAAUCUAUCUGAGGAUAUCAUGUCAAAGACAUGAGGAUCACCCAUGUUGCAGGAAACUGCUCAUGAGAAGGCAGAUAGAUUGA [SS2: 1129] (Eterna round: R96, puzzle: Same State 2)	rule not met

Data provenance: the supplement of paper PMC9170038
